This listing pairs binders with measured SPOT peptide array binding signal intensity.
testedOn: AgAbp1
experiment: SPOT peptide array binding signal intensity (averaged, normalized) (arbitrary units (background-subtracted, floor 0; scale differs between SH3 domains)); higher = stronger binding of the SH3 domain to the peptide
parameter: SPOT peptide array binding signal intensity

{"columns": ["binder", "rel", "val"],
 "data": [
  ["SPLGAPPPPPHKDHL", "≤", 0],
  ["PLQSKIPMLPSRRTM", "=", 98.5],
  ["TTNRGPPPLPPRANV", "=", 2],
  ["FLIKFTPKFPQSIDH", "=", 11],
  ["QGYPRQPQRPQRYHP", "=", 15.5],
  ["YRRKSIPFAPHQITA", "=", 34],
  ["RLSFFFPLDPAYIRN", "≤", 0],
  ["EEEEEHPPLPARRKS", "≤", 0],
  ["FSRRQSMDIPSKNRN", "=", 114],
  ["TSIEIPKRSPLRFTS", "=", 9],
  ["RSLRKRPTSPSISGS", "=", 197],
  ["DDEDVPPQLPTRTKS", "≤", 0]
]}
